- MEASUREMENT_PROTOCOL: GFP drop in mixed WT/humanized-ribosome E. coli culture – GFP/RFP fluorescence, OD600, single point, bacterial rRNA inhibitor project, primary screen (AID 720706)
- SETUP_CONDITIONS: E. coli WT GFP vs humanized-ribosome RFP mutants, 24 h, DMSO median 0, no signal -100
Out of some 350,000 compounds screened, about 5,500 (1.6%) were called active.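 Rule for the calls: active = significant combined selectivity score with lowered wild-type GFP, culture density cut under 30%, mutant RFP and density less affected; inactive = any of these conditions unmet.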 Shown is part of a subset that was picked to be rich in actives.
Labels: TRUE (active), FALSE (inactive)

1. Cc1cccc(CSc2nc3c(c(=O)n2C)SCC3)c1 :: TRUE
2. CCN(CC(=O)NCc1ccc(F)cc1)S(=O)(=O)c1ccc(Cl)s1 :: FALSE
3. O=S(=O)(c1ccccc1)N1CC[C@@H]2[C@H]1c1cc(C#Cc3cccc(F)c3)ccc1N[C@@H]2CO :: FALSE
4. COCC(=O)N1CC(=O)N2[C@H](CO)[C@@H](c3ccc(C#CC4CCCCC4)cc3)[C@@H]2C1 :: FALSE
5. CN(C)CCCNC(=O)/C=C/c1ccc(OCc2c(F)cccc2Cl)cc1 :: TRUE
6. CC=Cc1ccc2n(c1=O)C[C@@H]1[C@@H](CO)[C@H](C(=O)NCCc3ccccc3)N(C(C)=O)[C@H]21 (mixture of isomers) :: FALSE
7. CC(C)NC(=O)Nc1cccc2c1O[C@@H](CN(C)C(=O)NC(C)C)[C@@H](C)CN(C)C2=O :: FALSE
8. CC1(C)CC(=O)C=C(c2ccc(Cl)c(C(F)(F)F)c2)C1 :: FALSE
9. COc1cccc(CN(C)CC(=O)NCc2ccccc2Cl)c1OC :: TRUE
10. CN(Cc1ccccc1)C(=O)CSc1nc2ccccc2[nH]1 :: FALSE
11. Cc1noc(C)c1S(=O)(=O)N(C)C[C@@H]1OCCCC[C@H](C)Oc2ccc(NC(=O)CCC(F)(F)F)cc2C(=O)N([C@H](C)CO)C[C@H]1C :: FALSE
12. COc1ccc(S(=O)(=O)N2CCCCCC2)cc1C(=O)N(C)Cc1cccc(OC)c1OC :: FALSE
13. O=C(NCCc1ccccc1)c1c[nH]c2ccc(F)cc2c1=O :: TRUE
14. CN1c2ccc(Br)cc2[C@@H]2[C@@H](CCN2C(=O)C2CCCC2)[C@H]1CO :: FALSE
15. COc1cc(C(=O)NCc2cc3cc(Cl)ccc3n2C)cc(OC)c1OC :: FALSE
16. CN1c2ccc(Br)cc2[C@H]2[C@H](CCN2S(=O)(=O)c2ccc(F)cc2)[C@@H]1CO :: FALSE
17. CCCn1c(NC(=O)C23CC4CC(CC(O)(C4)C2)C3)nc2ccccc21 :: FALSE
18. C[C@H]1CN([C@@H](C)CO)C(=O)Cc2cc(NC(=O)NC3CCCCC3)ccc2O[C@@H]1CN(C)Cc1ccc(Oc2ccccc2)cc1 :: FALSE
19. OC[C@@H]1[C@@H](c2ccccc2)C2(CN(Cc3cccc(F)c3)C2)N1CC1CCCC1 :: FALSE
20. O=C(C[C@H]1C=C[C@H](NC(=O)C2CCOCC2)[C@@H](CO)O1)NCC1CC1 :: FALSE
21. Cc1ccc(SC(C)C(=O)NCc2ccc(F)cc2)cc1 (stereo unspecified) :: FALSE
22. C[C@@H]1CCCCO[C@H](CN(C)S(=O)(=O)c2cccs2)[C@H](C)CN([C@H](C)CO)C(=O)c2cc(NC(=O)c3ccccc3)ccc2O1 :: FALSE
23. COc1ccc(/C(C)=N/NC(=O)CCC(=O)Nc2ccc(Cl)cc2Cl)c(OC)c1 :: FALSE
24. Cc1nn(-c2ccccc2)c(C)c1/C=N/NC(=O)CSc1nc2ccccc2c(=O)n1-c1ccccc1 :: FALSE
25. C[C@H](O)C#Cc1ccc2c(c1)O[C@H](CN(C)Cc1cccnc1)[C@@H](C)CN([C@H](C)CO)S2(=O)=O :: FALSE
26. O=C(NC1CCCC1)[C@@H]1[C@@H](CO)[C@@H]2Cn3c(ccc(-c4ccc(F)cc4)c3=O)[C@H]1N2Cc1cocn1 :: FALSE
27. NS(=O)(=O)c1cccc(NC(=O)CSc2nc3ccccc3n2-c2ccccc2)c1 :: TRUE
28. COc1ccc(NC(=O)N(C)C[C@@H]2OCCCC[C@H](C)Oc3ccc(NS(=O)(=O)c4cn(C)cn4)cc3C(=O)N([C@@H](C)CO)C[C@@H]2C)cc1 :: FALSE
29. C[C@H](O)C#Cc1cnc2c(c1)C(=O)N([C@H](C)CO)C[C@H](C)[C@@H](CN(C)C(=O)Nc1ccc(F)cc1)O2 :: FALSE
30. COCCCNC(=O)/C=C/c1ccc(OCc2c(F)cccc2Cl)cc1 :: FALSE
31. Cc1nn(-c2ccccc2)c(Cl)c1/C=N/NC(=O)c1nn(C)cc1[N+](=O)[O-] :: TRUE
32. C[C@@H]1CCCCO[C@@H](CN(C)Cc2ccc(C(=O)Nc3ccccc3N)cc2)[C@H](C)CN([C@H](C)CO)C(=O)c2cc(N(C)C)ccc2O1 :: FALSE
33. COc1cccc(-c2cn(CC[C@H]3CC[C@H](NC(=O)CN(C)C)[C@H](CO)O3)nn2)c1 :: FALSE
34. O=C(CSc1nc2ccccc2[nH]1)N/N=C/C=C\c1ccccc1[N+](=O)[O-] :: TRUE
35. COc1ccccc1-c1n[nH]nc1C1=CC(=O)CC(C)(C)C1 :: FALSE
36. Cn1c(SCC(=O)N2CCCCC2)nc2c(c1=O)SCC2 :: FALSE
